study target: T1, mouse LAIR-1 (form in the assay not stated) (mouse, UniProt Q8BG84 22-144, limits assumed)
T1 sequence: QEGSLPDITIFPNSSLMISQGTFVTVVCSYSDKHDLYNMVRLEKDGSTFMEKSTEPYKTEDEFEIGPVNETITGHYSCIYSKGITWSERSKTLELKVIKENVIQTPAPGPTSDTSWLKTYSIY
measurement protocol: not described

| binder | binding result |
| --- | --- |
| anti-LAIR-1 antibody 61H4 (antibody, V domains shown, Monoclonal antibody from immunized mice (hybridoma)) VH: EVQLQQSGPEVLKPGASVKISCKASGYTFTDYYYMNWVKQSHGKSLEWIGYIYPNNGATSYNQKFKGKATLTVDKSSSTAYMELRSLTSEDSAVYYCARDGYSSNYYTMDYWGQGTSVTVSS VL: DVQMIQSPSSLSASLGDIVTMTCQASQGTSINLNWFQQKPGKAPKLLIYGASNLEDGVPSRFSGSRYGTDFTLTISSLEDEDMATYFCLQHTYLPYTFGGGTKLEIK | no binding |
| humanized anti-LAIR-1 antibody Hz47H1.v4 (antibody, human IgG1, kappa, N297G, V domains shown, Humanized 47H1 with reengineered VH CDR2 and VL CDR2) VH: EVQLVESGGGLVQPGGSLRLSCAASGFTFNINAMNWVRQAPGKGLEWVARIRTKNYNYATFYADSVKDRFTISRDDSKNSLYLQMNSLKTEDTAVYYCVRDRAGFFAYWGQGTTVTVSS VL: DIQMTQSPSSLSASVGDRVTITCLASQTIGTWLGWYQQKPGKAPKLLIYAATSLAEGVPSRFSGSGSGTDFTLTISSLQPEDFATYYCQQLYSTPLTFGGGTKVEIKR | no binding |
| anti-LAIR-1 antibody 108D10 (antibody, V domains shown, Monoclonal antibody from immunized mice (hybridoma)) VH: EVQLVETGGGLVQPKGSLKLSCAASGFTFNINAMNWVRQAPGKGLEWVARIRTKNNNYATYYADSVKDRFTISRDDSESMLYLQMNNLKTEDTAMYYCVRDRYGGAMAYWGQGTSVTVSS VL: DIQMTQSSSSFSVSLGDRVTITCKASEDIYNRLAWYQQKPGNVPRLLISSATSLETGVPSRFSGSGSGKDYTLSLTSLQSEDVATYYCQQYWTIPYTFGGGTKLEIK | no binding |
